meta.source: the RNAGym collection of RNA variant scans (doi:10.1093/nar/gkz1192)

B1: CPEB3 Ribozyme (parent)
chain: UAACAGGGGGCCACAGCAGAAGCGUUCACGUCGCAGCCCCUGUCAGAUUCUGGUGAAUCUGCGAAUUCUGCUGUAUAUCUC

Variants of: B1
assay details: self-cleavage, relative activity (ratio to wild type); higher = more cleavage; in vitro, sequencing
Grouping by measured self-cleavage is done with the following cut points: c1 = under 0.3, c2 = from 0.3 up to 0.7, c3 = 0.7 and over

Category of G19C A35U :
c1

Lab note: which band did U66A U80G land in?
c2

Class? Entry: A18U A56U
c2

Form field 'band' for C17U A45G
c2

Each variant maps to one class by self-cleavage. Which class for A47G C71U ?
c3

Exam item: assign A35U A45G to the correct category.
c2

Consider U66C U80C . To which self-cleavage class does it belong?
c2

Hi, small favor: classify C14U U69C by its self-cleavage when you get a moment.
c2

Would you mind sorting G8U A56U into the appropriate category?
c1

Please let me know in which category the item A57U U78G belongs.
c3

Class? Entry: U51C C68U
c3
